- target.entity: UniProt Q8I526
- measurement.notes: IC50 for competition of protein binding to Kinobeads;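 also: native unpurified kinases from lysate captured on beads bearing immobilized kinase inhibitors, with bead-bound kinases quantified by mass spectrometry across compound doses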
- settings: assay detail: Kinobeads competition in P. falciparum blood-stage lysate
pIC50: −log10 of the molar value.

- molecule: "O=c1[nH]c2ccc(Cl)cc2c(NC2CN3CCC2CC3)c1-c1nc2ccccc2[nH]1 (stereo unspecified)"
  pIC50: "< 4.70"

====

- target.entity: UniProt Q8IC06
- measurement.notes: IC50 for competition of protein binding to Kinobeads
- settings: assay detail: Kinobeads competition in P. falciparum blood-stage lysate

- compound: "O=c1[nH]c2ccc(Cl)cc2c(NC2CN3CCC2CC3)c1-c1nc2ccccc2[nH]1 (stereo unspecified)"
  IC50: "> 20 µM"

====

- target.entity: UniProt P50250
- Sequence (P50250 whole entry): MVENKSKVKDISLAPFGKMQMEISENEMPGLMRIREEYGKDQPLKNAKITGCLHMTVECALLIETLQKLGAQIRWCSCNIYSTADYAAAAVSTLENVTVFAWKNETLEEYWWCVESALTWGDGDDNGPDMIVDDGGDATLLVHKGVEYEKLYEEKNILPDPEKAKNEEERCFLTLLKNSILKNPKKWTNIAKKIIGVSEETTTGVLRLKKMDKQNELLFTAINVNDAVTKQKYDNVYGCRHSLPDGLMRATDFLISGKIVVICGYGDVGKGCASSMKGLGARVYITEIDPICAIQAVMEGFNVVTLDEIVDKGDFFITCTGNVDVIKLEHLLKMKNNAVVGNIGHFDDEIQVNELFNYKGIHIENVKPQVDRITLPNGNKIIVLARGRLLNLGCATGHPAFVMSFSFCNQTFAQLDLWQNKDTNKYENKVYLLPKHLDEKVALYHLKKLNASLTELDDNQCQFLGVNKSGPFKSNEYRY
- measurement.notes: IC50 for competition of protein binding to Kinobeads
- settings: assay detail: Kinobeads competition in P. falciparum blood-stage lysate
observed.property: IC50

- compound: "O=c1[nH]c2ccc(Cl)cc2c(NC2CN3CCC2CC3)c1-c1nc2ccccc2[nH]1 (stereo unspecified) [CHIR-124]"
  observed.property: "IC50"
  result: "> 20 µM"

====

- target.entity: UniProt Q8IJZ7
- measurement.notes: IC50 for competition of protein binding to Kinobeads
- settings: assay detail: Kinobeads competition in P. falciparum blood-stage lysate
observed.property: IC50

- compound: "O=c1[nH]c2ccc(Cl)cc2c(NC2CN3CCC2CC3)c1-c1nc2ccccc2[nH]1 (stereo unspecified)"
  target.entity: "UniProt Q8IJZ7"
  result: "> 20 µM"

====

- target.entity: UniProt Q8I5H4
- measurement.notes: IC50 for competition of protein binding to Kinobeads
- settings: assay detail: Kinobeads competition in P. falciparum blood-stage lysate
observed.property: IC50

- compound: "O=c1[nH]c2ccc(Cl)cc2c(NC2CN3CCC2CC3)c1-c1nc2ccccc2[nH]1 (stereo unspecified)"
  observed.property: "IC50"
  result: "> 20 µM"

====

- target.entity: UniProt C6KT34
- measurement.notes: IC50 for competition of protein binding to Kinobeads
- settings: assay detail: Kinobeads competition in P. falciparum blood-stage lysate
pIC50: −log10 of the molar value.
observed.property: pIC50

- compound: "O=c1[nH]c2ccc(Cl)cc2c(NC2CN3CCC2CC3)c1-c1nc2ccccc2[nH]1 (stereo unspecified)"
  target.entity: "UniProt C6KT34"
  result: "< 4.70"

====

- target.entity: UniProt Q8IKK4
- measurement.notes: IC50 for competition of protein binding to Kinobeads
- settings: assay detail: Kinobeads competition in P. falciparum blood-stage lysate

- molecule: "O=c1[nH]c2ccc(Cl)cc2c(NC2CN3CCC2CC3)c1-c1nc2ccccc2[nH]1 (stereo unspecified) [CHIR-124]"
  IC50: "> 20 µM"

====

- target.entity: UniProt Q8IBH7
- Sequence (whole entry): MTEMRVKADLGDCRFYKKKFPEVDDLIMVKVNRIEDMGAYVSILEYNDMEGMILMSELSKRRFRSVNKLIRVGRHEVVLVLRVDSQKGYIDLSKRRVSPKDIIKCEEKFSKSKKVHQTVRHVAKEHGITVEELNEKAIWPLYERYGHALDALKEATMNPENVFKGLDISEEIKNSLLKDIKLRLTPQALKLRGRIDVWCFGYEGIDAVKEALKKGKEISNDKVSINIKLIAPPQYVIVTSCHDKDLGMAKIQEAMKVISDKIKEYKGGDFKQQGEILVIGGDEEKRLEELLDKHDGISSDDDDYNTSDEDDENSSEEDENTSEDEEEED
- measurement.notes: IC50 for competition of protein binding to Kinobeads
- settings: assay detail: Kinobeads competition in P. falciparum blood-stage lysate
pIC50: −log10 of the molar value.

- compound: "O=c1[nH]c2ccc(Cl)cc2c(NC2CN3CCC2CC3)c1-c1nc2ccccc2[nH]1 (stereo unspecified)"
  pIC50: "< 4.70"

Reference source: the supplement of paper PMC13386468
